Reference source: patent US20220177594A1

- Measured On: Feline_OSMR_hlgG1_Fc (feline)
- Sequence (chain, as listed by the source limits assumed, form in doubt): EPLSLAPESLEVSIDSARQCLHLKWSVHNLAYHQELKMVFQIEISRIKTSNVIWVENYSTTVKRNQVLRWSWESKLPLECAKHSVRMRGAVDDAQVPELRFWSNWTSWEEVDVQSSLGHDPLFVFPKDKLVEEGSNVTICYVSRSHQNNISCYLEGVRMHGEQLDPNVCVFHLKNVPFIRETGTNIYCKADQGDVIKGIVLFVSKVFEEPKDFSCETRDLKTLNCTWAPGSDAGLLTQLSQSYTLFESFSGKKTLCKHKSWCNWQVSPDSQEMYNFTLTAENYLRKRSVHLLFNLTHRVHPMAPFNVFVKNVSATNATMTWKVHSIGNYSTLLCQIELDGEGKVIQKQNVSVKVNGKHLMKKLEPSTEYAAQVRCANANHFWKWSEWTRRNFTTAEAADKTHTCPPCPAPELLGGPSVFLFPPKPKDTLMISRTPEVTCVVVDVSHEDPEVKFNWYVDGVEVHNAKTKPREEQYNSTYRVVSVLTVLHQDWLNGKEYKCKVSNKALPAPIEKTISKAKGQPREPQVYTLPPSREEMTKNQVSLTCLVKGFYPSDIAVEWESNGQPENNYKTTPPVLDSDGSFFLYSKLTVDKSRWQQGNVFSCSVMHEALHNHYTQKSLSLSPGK
- Assay Details: SPR Biacore
Would you mind telling me the reported koff of each entry?
Provide only the numeric value, understood in s⁻¹.

Note koff for the binder shown: Mu_02D09_VH (SEQ ID NO: 31)_Y50A (antibody, V domains shown) VH: EVQLVESGGGLVKPGGSLTLSCAASGFTFSDYGMHWLRQAPEKGLEWVAAISSGSRAVFFADTVKGRFTISRDNAKNTLFLQMTSLRSDDTAMYYCARDRYDGRGFAYWGQGTLVTVSA VL: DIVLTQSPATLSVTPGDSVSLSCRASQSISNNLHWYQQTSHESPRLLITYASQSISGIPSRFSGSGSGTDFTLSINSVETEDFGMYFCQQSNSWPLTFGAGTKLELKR
1.2e-07

Answer with reported koff of Mu_02D09_VL (SEQ ID NO: 33)_S56A (antibody, V domains shown) VH: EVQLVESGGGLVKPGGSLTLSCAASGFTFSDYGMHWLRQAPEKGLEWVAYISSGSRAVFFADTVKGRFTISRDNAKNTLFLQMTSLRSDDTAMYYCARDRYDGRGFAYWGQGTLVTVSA VL: DIVLTQSPATLSVTPGDSVSLSCRASQSISNNLHWYQQTSHESPRLLITYASQSIAGIPSRFSGSGSGTDFTLSINSVETEDFGMYFCQQSNSWPLTFGAGTKLELKR
0.00107

Specify measured koff for Mu_10F07_VL (SEQ ID NO: 41)_T53A (antibody, V domains shown) VH: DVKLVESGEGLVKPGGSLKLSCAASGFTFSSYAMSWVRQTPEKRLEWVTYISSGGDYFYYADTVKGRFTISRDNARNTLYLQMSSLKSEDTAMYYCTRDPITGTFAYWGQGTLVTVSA VL: DIQMTQTTSSLSASLGDRVTISCRASQDITNYLNWYQQKPDGTVKLLIYYTSALHSGVPSRFSGSGSGTDFSLTISNLEQEDIATYFCQQGHMLPWTFGGGTKLEIKR .
0.000468
